Each recorded value in this set is attributed to the RNAGym collection of RNA variant scans (doi:10.1073/pnas.2313332121).

B1: TPR t1 (parent)
chain: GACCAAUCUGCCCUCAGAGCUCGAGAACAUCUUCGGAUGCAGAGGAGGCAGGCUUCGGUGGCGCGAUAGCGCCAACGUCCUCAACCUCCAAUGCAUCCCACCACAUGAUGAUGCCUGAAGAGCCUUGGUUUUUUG

variants of: B1; test: polymerase ribozyme fitness, log enrichment relative to wild type (log ratio); higher = more active; in vitro selection for triplet polymerase activity
Where polymerase ribozyme fitness (log ratio) equals or exceeds -2, the correct label is 1.0; where it does not, the label is 0.0.

1) G71A C86A C114A = 0.0
2) A26G C28G C104U = 0.0
3) C64U U81A = 1.0

Record C13G U132A ; criterion: polymerase ribozyme fitness (log ratio) no lower than -2. Met?
1.0

Given C64G U81A G120C , state whether its polymerase ribozyme fitness (log ratio) is at least -2.
0.0

In plain terms: is recorded polymerase ribozyme fitness (log ratio) at least -2 for C40A G60A C85G ?
0.0

Item A2G C20A G63C C114A with polymerase ribozyme fitness (log ratio) of -2 or above?
0.0

Identify whether the reported polymerase ribozyme fitness (log ratio) of the following variant is -2 or greater: A41C G61U G93C
1.0

Textbook exercise: given the entry G42U U59A C62G C88G A90U C98U , state whether its polymerase ribozyme fitness (log ratio) is greater than or equal to -2.
0.0

Form field: polymerase ribozyme fitness (log ratio) at least -2? Entry: G69U C115G
1.0
